Below is a list of entries, each paired with its recorded AC50 value.
- target_of_assay: Alpha-1A adrenergic receptor (Homo sapiens); further: assay procedure not described here
- Sequence (P35348 whole entry): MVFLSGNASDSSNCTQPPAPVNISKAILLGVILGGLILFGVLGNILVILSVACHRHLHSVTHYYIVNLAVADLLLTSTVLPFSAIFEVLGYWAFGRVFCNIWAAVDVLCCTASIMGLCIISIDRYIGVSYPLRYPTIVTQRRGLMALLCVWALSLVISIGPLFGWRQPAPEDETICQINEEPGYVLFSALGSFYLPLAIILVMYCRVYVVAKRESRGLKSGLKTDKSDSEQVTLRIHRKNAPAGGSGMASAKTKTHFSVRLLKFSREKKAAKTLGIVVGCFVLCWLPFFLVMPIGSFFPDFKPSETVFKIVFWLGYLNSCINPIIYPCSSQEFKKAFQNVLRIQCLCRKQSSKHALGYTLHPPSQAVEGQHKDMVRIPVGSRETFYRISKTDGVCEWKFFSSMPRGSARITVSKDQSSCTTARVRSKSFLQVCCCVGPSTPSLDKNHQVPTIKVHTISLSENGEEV

molecule: C[C@H]1COc2c(C3(N)CC3)c(F)cc3c(=O)c(C(=O)O)cn1c23
measurement_units: µM
comparative_sign: >
AC50: 10
--
molecule: CN(C)CCC=C1c2ccccc2C=Cc2ccccc21
measurement_units: µM
comparative_sign: =
AC50: 0.261
--
molecule: Cc1cn([C@H]2C[C@H](N=[N+]=[N-])[C@@H](CO)O2)c(=O)[nH]c1=O
measurement_units: µM
comparative_sign: >
AC50: 10
--
molecule: CC1=C(C(=O)O)N2C(=O)[C@@H](NC(=O)[C@H](N)c3ccccc3)[C@H]2SC1 [CEPHALEXIN ANHYDROUS]
measurement_units: µM
comparative_sign: =
AC50: 5.78
--
molecule: CO[C@H]1C[C@@H]2CC[C@@H](C)[C@@](O)(O2)C(=O)C(=O)N2CCCC[C@H]2C(=O)O[C@H]([C@H](C)C[C@@H]2CC[C@@H](O)[C@H](OC)C2)CC(=O)[C@H](C)/C=C(\C)[C@@H](O)[C@@H](OC)C(=O)[C@H](C)C[C@H](C)/C=C/C=C/C=C/1C
measurement_units: µM
comparative_sign: =
AC50: 0.156
--
molecule: C[C@@H](O)[C@H]1C(=O)N2C(C(=O)O)=C(S[C@@H]3CN[C@H](C(=O)N(C)C)C3)[C@H](C)[C@H]12
measurement_units: µM
comparative_sign: >
AC50: 10
--
molecule: CCOC(=O)[C@H](CCc1ccccc1)N[C@@H](C)C(=O)N1[C@H](C(=O)O)C[C@@H]2CCC[C@@H]21
measurement_units: µM
comparative_sign: >
AC50: 10

* * *

Here's a batch of compounds along with measured AC50 for D(3) dopamine receptor (Homo sapiens, UniProt P35462).

compound: CC(=O)Nc1ccc(O)cc1
AC50: > 30 µM
//
compound: CC(C)C[C@H]1C(=O)N2CCC[C@H]2[C@]2(O)O[C@](NC(=O)[C@@H]3C[C@@H]4c5cccc6[nH]cc(c56)C[C@H]4N(C)C3)(C(C)C)C(=O)N12 [DIHYDROERGOCRYPTINE]
AC50: 0.202 µM
//
compound: CN(C)CCn1nnnc1SCC1=C(C(=O)O)N2C(=O)[C@@H](NC(=O)Cc3csc(N)n3)[C@H]2SC1
AC50: > 30 µM
//
compound: COc1ccc(C(=O)Nc2ccccc2CCC2CCCCN2C)cc1 (stereo not given) [ENCAINIDE]
AC50: > 30 µM
//
compound: Cc1ccccc1OCC(O)CO (stereo not given)
AC50: > 30 µM
//
compound: OB1OCc2cc(F)ccc21
AC50: > 30 µM
//
compound: Cc1cc(C)c(NC(=O)CN(CC(=O)O)CC(=O)O)c(C)c1Br
AC50: > 30 µM
//
compound: CC1(C)NC(=O)N(c2ccc([N+](=O)[O-])c(C(F)(F)F)c2)C1=O [NILUTAMIDE]
AC50: > 30 µM
//
compound: Cc1cc(C#N)cc(C)c1Oc1nc(Nc2ccc(C#N)cc2)nc(N)c1Br
AC50: > 30 µM
//
compound: CC(C)(C)NC[C@H](O)COc1ccccc1C1CCCC1
AC50: 7.74 µM
//
compound: O=c1[nH]c(=O)n([C@H]2C[C@H](O)[C@@H](CO)O2)cc1I
AC50: > 30 µM
//
compound: CC[C@]1(O)C[C@H]2CN(CCc3c([nH]c4ccccc34)[C@@](C(=O)OC)(c3cc4c(cc3OC)N(C=O)[C@H]3[C@@](O)(C(=O)OC)[C@H](OC(C)=O)[C@]5(CC)C=CCN6CC[C@]43[C@@H]65)C2)C1
AC50: > 30 µM
//
compound: CO[C@H]1C[C@@H]2CC[C@@H](C)[C@@](O)(O2)C(=O)C(=O)N2CCCC[C@H]2C(=O)O[C@H]([C@H](C)C[C@@H]2CC[C@@H](O)[C@H](OC)C2)CC(=O)[C@H](C)/C=C(\C)[C@@H](O)[C@@H](OC)C(=O)[C@H](C)C[C@H](C)/C=C/C=C/C=C/1C
AC50: > 30 µM
//
compound: CO[C@]12C[C@@H](COC(=O)c3cncc(Br)c3)CN(C)[C@@H]1Cc1cn(C)c3cccc2c13
AC50: 0.641 µM
//
compound: CCOC(=O)/C=C1\SC(N2CCCCC2)C(=O)N1C (stereo not given)
AC50: > 30 µM
